- TESTED_TARGET: androgen receptor (AdEasy+rAR, COS-7 cells) (Rattus norvegicus, UniProt P15207)
- Construct: expressed in transfected cells; host or cells: COS-7 cells transduced with adenovirus AdEasy+rAR
- Sequence (P15207 1-902): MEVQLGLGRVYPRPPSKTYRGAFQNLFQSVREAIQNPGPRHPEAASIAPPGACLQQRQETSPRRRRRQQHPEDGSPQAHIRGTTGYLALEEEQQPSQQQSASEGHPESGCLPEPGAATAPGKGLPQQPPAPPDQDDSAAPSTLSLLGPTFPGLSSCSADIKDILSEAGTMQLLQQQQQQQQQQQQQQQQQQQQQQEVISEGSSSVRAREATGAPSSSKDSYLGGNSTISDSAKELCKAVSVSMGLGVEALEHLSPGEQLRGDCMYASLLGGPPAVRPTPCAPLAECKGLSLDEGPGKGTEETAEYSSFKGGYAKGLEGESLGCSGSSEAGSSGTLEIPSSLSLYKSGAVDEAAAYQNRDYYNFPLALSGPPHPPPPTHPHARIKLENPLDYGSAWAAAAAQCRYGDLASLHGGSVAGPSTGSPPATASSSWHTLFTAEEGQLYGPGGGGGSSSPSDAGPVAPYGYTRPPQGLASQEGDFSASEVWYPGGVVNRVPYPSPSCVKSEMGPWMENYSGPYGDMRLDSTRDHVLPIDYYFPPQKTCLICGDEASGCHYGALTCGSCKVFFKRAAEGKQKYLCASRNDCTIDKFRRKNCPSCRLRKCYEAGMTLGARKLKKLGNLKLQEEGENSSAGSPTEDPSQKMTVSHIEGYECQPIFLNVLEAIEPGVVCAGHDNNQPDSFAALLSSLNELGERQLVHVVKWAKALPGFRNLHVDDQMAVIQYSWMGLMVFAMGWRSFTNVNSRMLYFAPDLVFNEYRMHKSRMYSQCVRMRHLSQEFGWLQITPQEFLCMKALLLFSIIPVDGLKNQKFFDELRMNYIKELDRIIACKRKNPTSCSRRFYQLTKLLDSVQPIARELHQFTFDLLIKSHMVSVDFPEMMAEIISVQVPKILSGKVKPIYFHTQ
- PROCEDURE_TEXT: COS-7 Whole-Cell Androgen Receptor Binding Assay, Adenovirus Transduction
- CONDITION_CONTEXT: read-out: IC50 (nM), COS Binding
- Experimental: COS-7 cells were plated in 96-well plates at 20,000 cells per well, in a solution of DMEM/F12 (GIBCO) containing 10% (v/v) charcoal-treated fetal bovine serum (Hyclone) and lacking phenol red. […] To each well was then added 50 μL of 0.5% (v/v) Triton X-100 (Sigma) in 1× PBS and the plates placed on a rotary shaker for 5 min. […] To each well was then added 0.2 mL of Microscint-20 (Packard) and the wells counted on a TopCount (Packard). […]
Would you mind telling me the reported IC50 of each entry?
Give a bare numeral; the unit nM is implied.

QUERY: What does the data say about its IC50? Entry: CCSCC(C)(O)c1[nH]c2cc(C(F)(F)F)c(C#N)cc2c1C (single isomer, unassigned) [Compound 234]
RESULT: 539

QUERY: I am curious: what IC50 value has been reported for CCSCC(C)(O)c1[nH]c2cc(C(F)(F)F)c([N+](=O)[O-])cc2c1C#N (single isomer, unassigned) [Compound 247] ?
RESULT: 60.7

QUERY: What measured IC50 goes with CCS(=O)(=O)CC(C)(O)c1[nH]c2cc(C(F)(F)F)c(C#N)cc2c1C (racemic) [Compound 246] ?
RESULT: 616

QUERY: Quick one: IC50 for CCSCC(C)(O)c1cc2cc(C#N)c(C(F)(F)F)cc2n1C (centres unmarked) [Compound 236] ?
RESULT: 105

QUERY: Sample CCSCC(C)(O)c1cc2cc(Br)c(C(F)(F)F)cc2[nH]1 (centres unmarked) [Compound 220] — what was its IC50?
RESULT: 34

QUERY: For the compound shown here, CCSCC(C)(O)c1[nH]c2cc(C(F)(F)F)c(C#N)cc2c1C (centres unmarked) [Compound 219] , give the reported IC50.
RESULT: 6.2
